The measurements presented in this section are drawn from patent US9028845B2.

Test system: human PBMCs
Test: Human PBMC cytokine response assay (IFN-γ and IFN-α in cell-free medium by ELISA), with or without cPLGA
Type: cell-based
Settings: Donor 3; 20 μg/ml, 24 h
Strand notation (5' to 3'): a small letter for the sugar, then the base; units joined by * are phosphorothioate-linked, units joined directly phosphodiester-linked; [ ] holds rarer units or linkages, { } end groups; capitals alone tell only the bases. d = 2'-deoxy (DNA)
IFN-γ (pg/ml) Donor 3 values for the substances below.

{"substance": "5′-TGACTGTGAACCTTAGAGATGA-3′ (SEQ ID NO: 3) (dT*dG*dA*dC*dT*dG*dT*dG*dA*dA*dC*dC*dT*dT*dA*dG*dA*dG*dA*dT*dG*dA) [Compound P-7, negative control, reference compound]", "IFN-γ (pg/ml) Donor 3 (pg/mL)": 3}
{"substance": "5′-TCGTCG-3′ [Compound P-2, reference compound]", "IFN-γ (pg/ml) Donor 3 (pg/mL)": 0}
{"substance": "5′-TCGTCGA-3′ [Compound P-1, reference compound]", "IFN-γ (pg/ml) Donor 3 (pg/mL)": 1}
{"substance": "5′-ACGTTCG-3′ [Compound P-3, reference compound]", "IFN-γ (pg/ml) Donor 3 (pg/mL)": 1}
{"substance": "5′-AGATGAT-3′ [Compound P-4, reference compound]", "IFN-γ (pg/ml) Donor 3 (pg/mL)": 0}
{"substance": "5′-ATCTCGA-3′ [Compound P-5, reference compound]", "IFN-γ (pg/ml) Donor 3 (pg/mL)": 0}

====

# maps each entry to its cpm3
Test system: CD19+ B cells
Assay: Human B cell proliferation assay (3H-thymidine incorporation)
Details: B cells; donor 194; 2 μg/ml; Experiment B
Strand notation (5' to 3'): a small letter for the sugar, then the base; units joined by * are phosphorothioate-linked, units joined directly phosphodiester-linked; [ ] holds rarer units or linkages, { } end groups; capitals alone tell only the bases. d = 2'-deoxy (DNA)

{"substance": "5′-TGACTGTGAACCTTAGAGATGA-3′ (SEQ ID NO: 3) (dT*dG*dA*dC*dT*dG*dT*dG*dA*dA*dC*dC*dT*dT*dA*dG*dA*dG*dA*dT*dG*dA) [Compound P-7, reference compound]", "cpm3 [cpm]": 1686}
{"substance": "5′-TCGTCG-3′-C12-5′-ACGTTCG-3′-C12-5′-AGATGAT-3′ [Compound C-19]", "cpm3 [cpm]": 312}
{"substance": "5′-ACGTTCG-3′-HEG-5′-ACGTTCG-3′-HEG-5′-AGATGAT-3′ [Compound C-24]", "cpm3 [cpm]": 3468}
{"substance": "5′-TCGTCG-3′-HME-5′-ACGTTCG-3′-HME-5′-AGATGAT-3′ [Compound C-25]", "cpm3 [cpm]": 17384}
{"substance": "5′-TCGTCGA-3′- C3-5′-ACGTTCG-3′-C3-5′-AGATGAT-3′ [Compound C-9]", "cpm3 [cpm]": 17866}
{"substance": "5′-TCGTCG-3′- C3-5′-ACGTTCG-3′-C3-5′-AGATGAT-3′ [Compound C-11]", "cpm3 [cpm]": 11253}
{"substance": "(5′-TCGTCGA-3′-HEG)2-glycerol-HEG-5′-TCGTCGA-3′ [Compound C-94]", "cpm3 [cpm]": 5349}
{"substance": "5′-TCGTCG-3′-HEG-5′-TCGTCG-3′-HEG-5′-TCGTCG-3′ [Compound C-22]", "cpm3 [cpm]": 3894}
{"substance": "5′-TCGTCGA-3′-HEG-5′-ACGTTCG-3′-HEG-5′-AGATGAT-3′ [Compound C-8]", "cpm3 [cpm]": 7602}
{"substance": "5′-TCGTCG-3′-HEG-5′-AACGTT-3′-HEG-5′-AGATGAT-3′ [Compound C-23]", "cpm3 [cpm]": 9596}
{"substance": "(5′-TCGTCGA-3′)2-glycerol-5′-TCGTCGA-3′ [Compound C-28]", "cpm3 [cpm]": 15691}
{"substance": "5′-TCGTCG-3′-abasic-5′-ACGTTCG-3′-abasic-5′-AGATGAT-3′ [Compound C-20]", "cpm3 [cpm]": 17481}
{"substance": "5′-TCGTCG-3′-TEG-5′-ACGTTCG-3′-TEG-5′-AGATGAT-3′ [Compound C-18]", "cpm3 [cpm]": 10538}
{"substance": "5′-TCGTCG-3′-HEG-5′-ACGTTCG-3′-HEG-5′-AGATGAT-3′ [Compound C-10]", "cpm3 [cpm]": 5943}
{"substance": "5′-TCGTCG-3′-C4-5′-ACGTTCG-3′-C4-5′-AGATGAT-3′ [Compound C-17]", "cpm3 [cpm]": 10518}
